experiment: Human HepG2 cell viability assay in 384 well format; format: toxicity, cell-based; parameters: dose 125 nL, time 70.5 hour; concentration not given beside the values; settings: HepG2 cells, read-out: Inhibition
READOUT LABEL: cytotoxicity at 70.5 h

[[record]]
compound = "CCc1nnc2n1CCN(C(C(=O)NC1CC1)c1ccccc1)C2 (configuration not stated)"
obs_value = "-7.08%"

[[record]]
compound = "Cc1cnc(N2Cc3nccn3CC(Cn3ncccc3=O)C2)nc1 (configuration not stated)"
obs_value = "-1%"

[[record]]
compound = "O=c1cccnn1CC1CN(c2ncc(F)cn2)Cc2nccn2C1 (configuration not stated)"
obs_value = "-10.5%"

[[record]]
compound = "COc1cc(I)c(Cl)cc1C(=O)N(C)C"
obs_value = "-20.5%"

[[record]]
compound = "COCCN(C)C(=O)c1nc2c(s1)CCCN2S(C)(=O)=O"
obs_value = "3.66%"

[[record]]
compound = "CN(Cc1noc2c1CCCC2)C(=O)Cn1cnc2ccccc2c1=O"
obs_value = "-9.78%"


Give me cytotoxicity at 70.5 h for each of these compounds, listed below.
1. O=C(C1CCOCC1)N1CCc2ncc(CN3CCOCC3)n2CC1
2. CNCc1n[nH]c(=O)n1-c1cccc(Cl)c1Cl

1. -11.5%
2. -8.26%

* * *

experiment: Human HepG2 cell viability assay in 384 well format; type: toxicity, cell-based; parameters: dose 125 nL, time 70.5 hour; concentration not given beside the values; settings: HepG2 cells, read-out: Inhibition
Would you mind telling me the reported cytotoxicity at 70.5 h of each entry?
A complete answer gives the number followed by the unit.

Respectfully, I request cytotoxicity at 70.5 h for each entry included below.
1. Cc1nc(C2CCCN2Cc2nccn2CC(F)(F)F)no1 (stereo not drawn)
2. CCOCC1CN(Cc2csc(C)n2)Cc2nccn2C1 (stereo not drawn)
3. COC(=O)c1cccc2nc([C@H]3CCN(Cc4ccccc4)C3)oc12

1. -2.36%
2. 3.86%
3. -11.8%

I'm hoping you can list cytotoxicity at 70.5 h for every compound here, please.
1. O=C(Nc1cnccn1)[C@@H]1CC[C@@H]2[C@@H](CCN2Cc2nccs2)O1
2. Cc1cc2cccc(C(=O)N3CCOC4(CNCCOC4)C3)c2o1 (stereo not drawn)
3. O=C(O)c1ccc2[nH]cc(CN3CCCC3)c2c1
4. CC(C)N(C)[C@@H]1CCN(Cc2ccoc2)[C@H]1Cc1ccccc1
5. COC[C@@H]1CCCN1C(=O)CCc1c(C)nn(C)c1C
6. CC(C)c1sc(Br)nc1C(=O)NCc1ccco1
7. CC(C)C[C@@H]1N[C@H](C(=O)NCC2CC2)Cc2c[nH]c3cccc1c23

["-4.62%", "32.7%", "6.43%", "-1.21%", "-2.05%", "32.2%", "0.485%"]

Each compound below has a reported value. Please supply its cytotoxicity at 70.5 h.
1. O=C(c1ccc2[nH]cnc2c1)N1CCC(Oc2cccnc2)CC1
2. Cc1cnn(CC2CCCN2C(=O)c2n[nH]c(=O)c3ccccc23)c1 (stereo not drawn)
3. COCc1noc(-c2ccc(N3CCCC3c3ccc(F)cc3)nc2)n1 (stereo not drawn)
4. Cc1nc(C(=O)N2CCCC2c2cncc(CN3CCCC3)n2)co1 (stereo not drawn)
5. Cc1noc(Cl)c1CCC(=O)N1CCN(c2ncccn2)CC1
6. Cc1ncc(CNC2CCc3nc(C(C)C)nn3C2)s1 (stereo not drawn)

1: -6.98%; 2: -7.98%; 3: -3.49%; 4: -1.27%; 5: -7.01%; 6: 1.67%

Respectfully, I request cytotoxicity at 70.5 h for each entry included below.
1. Fc1ccc(OCC2CCCO2)c(NCc2noc(C3CC3)n2)c1 (stereo not drawn)
2. COc1ccc2cc(-c3n[nH]cc3CN3CCSCC3)ccc2c1
3. CN(Cc1cc(-c2ccncc2)no1)C(=O)[C@@H]1CSCN1C

-7.27%
0.45%
-13.1%
